Values compiled from patent US4639433A.

System: Staphylococcus aureus X400
Settings: agar dilution
experimental.readout: MIC (µg/mL)
Your answer should be a plain number; it is taken to be in µg/mL.

Some compounds with recorded MIC:
>>> observed_value("CNC(CC(C)C)C(=O)NC1C(=O)NC(CC(N)=O)C(=O)NC2C(=O)NC3C(=O)NC(C(=O)NC(C(=O)O)c4cc(O)cc(O)c4-c4cc3ccc4O)C(O)c3ccc(c(Cl)c3)Oc3cc2cc(c3OC2OC(CO)C(O)C(O)C2OC2CC(C)(NC(=O)CC(C)C)C(O)C(C)O2)Oc2ccc(cc2Cl)C1O (stereo not drawn) [Compound 34, N^van --(1-oxo-isopentyl)vancomycin]")
2
>>> observed_value("CNC(CC(C)C)C(=O)NC1C(=O)NC(CC(N)=O)C(=O)NC2C(=O)NC3C(=O)NC(C(=O)NC(C(=O)O)c4cc(O)cc(O)c4-c4cc3ccc4O)C(O)c3ccc(c(Cl)c3)Oc3cc2cc(c3OC2OC(CO)C(O)C(O)C2OC2CC(C)(NC(=O)C(NC(=O)OCc3ccccc3)C(C)C)C(O)C(C)O2)Oc2ccc(cc2Cl)C1O (stereo not drawn) [Compound 32]")
8

Note: attention shifts to another entry.
// query MIC value for entry CNC(CC(C)C)C(=O)NC1C(=O)NC(CC(N)=O)C(=O)NC2C(=O)NC3C(=O)NC(C(=O)NC(C(=O)O)c4cc(O)cc(O)c4-c4cc3ccc4O)C(O)c3ccc(c(Cl)c3)Oc3cc2cc(c3OC2OC(CO)C(O)C(O)C2OC2CC(C)(NC(=O)CCC(C)=O)C(O)C(C)O2)Oc2ccc(cc2Cl)C1O (stereo not drawn) [Compound 36]
2
